target or test system: human Melanin concentrating hormone receptor 1 (MCH1r) (Homo sapiens)
Sequence (Q99705 whole entry): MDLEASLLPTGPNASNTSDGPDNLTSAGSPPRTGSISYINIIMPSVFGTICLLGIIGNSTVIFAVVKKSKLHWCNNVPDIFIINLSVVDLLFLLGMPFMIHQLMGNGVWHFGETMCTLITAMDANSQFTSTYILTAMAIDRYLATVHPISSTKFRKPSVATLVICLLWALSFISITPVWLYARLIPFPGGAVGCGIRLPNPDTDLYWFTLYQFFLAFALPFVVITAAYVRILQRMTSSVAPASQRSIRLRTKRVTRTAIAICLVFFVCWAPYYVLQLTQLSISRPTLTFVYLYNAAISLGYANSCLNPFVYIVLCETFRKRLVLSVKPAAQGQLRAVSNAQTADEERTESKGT
endpoint label: pIC50
Answers are plain numbers, as −log10 of the molar value.

pIC50 measured on COc1cc(N[C@H]2CCC[C@H](NCc3ccsc3)C2)nc2ccc(F)cc12 [Example 5] = 7.59
